experimental_system: phosphorylated active hERK2 enzyme (Homo sapiens (Human), UniProt P28482)
Sequence (P28482 whole entry): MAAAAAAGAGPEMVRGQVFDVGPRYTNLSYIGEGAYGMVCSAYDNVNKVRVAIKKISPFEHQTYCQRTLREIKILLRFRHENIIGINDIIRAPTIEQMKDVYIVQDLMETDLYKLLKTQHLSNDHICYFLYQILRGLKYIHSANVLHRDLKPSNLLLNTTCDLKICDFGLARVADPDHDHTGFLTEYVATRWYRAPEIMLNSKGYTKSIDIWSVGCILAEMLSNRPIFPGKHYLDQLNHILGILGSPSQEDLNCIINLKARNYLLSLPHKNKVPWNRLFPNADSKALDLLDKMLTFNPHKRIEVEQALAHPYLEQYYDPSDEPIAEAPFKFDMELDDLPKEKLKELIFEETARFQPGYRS
run_parameters: read-out: ERK2 IC50; IMAP-FP assay; 0.5 nM hERK2, 30 μM ATP; 10 point titration, 3 μM starting concentration
pIC50: −log10 of the molar value.
measure_name: pIC50

# example entries with known answers
Cc1cc(-n2ncc3cc(NC(=O)N[C@H]4CN(C(C)C)C[C@@H]4c4ccccc4)ncc32)ccn1 [Example 198]; 8.58
O=C(NCc1ccc(Cl)c(Cl)c1)Nc1cc2cnn(-c3ccncc3)c2cn1 [Example 12]; 9.05
Cc1cc(-n2ncc3cc(NC(=O)N[C@H]4CCN(Cc5c(F)cccc5F)C4)ncc32)ccn1 [Example 282]; 6.77
O=C(NCc1ccc(Cl)cc1)Nc1cc2cnn(-c3ccncc3)c2cn1 [Example 42]; 8.10
CC(=O)N[C@H]1CCCC[C@@H]1NC(=O)Nc1cc2cnn(-c3ccnc(C)c3)c2cn1 [Example 139]; 5.66

A = Cc1cc(-n2ncc3cc(NC(=O)NCC4CN(c5ccccc5)CCO4)ncc32)ccn1 (stereo not shown) [Example 79]
B = Cc1cc(-n2ncc3cc(NC(=O)NC4CCN(C)C4=O)ncc32)ccn1 (stereo not shown) [Example 23]
query: Could you determine which record has the numerically smaller pIC50? Candidates: A and B // caller expects the label of the chosen entry
result: B

a = Cn1ncc2cc(NC(=O)N[C@@H](c3ccccc3)C(C)(C)O)nc(CO)c21 [Example 226]
b = Cc1cc(-n2ncc3cc(NC(=O)N[C@H]4CN(C)C[C@@H]4c4ccc(C)s4)ncc32)ccn1 [Example 189]
c = Cc1cc(-n2ncc3cc(NC(=O)NCc4c(-c5ccccc5)noc4C)ncc32)ccn1 [Example 114]
query: // sort entries: pIC50, high to low # answer = labels listed in requested order
result: b, c, a

I = Cc1cc(-n2ncc3cc(NC(=O)N[C@H]4CN(C)C[C@@H]4CCCc4ccccc4)ncc32)ccn1 [Example 149]
II = Cc1cc(-n2ncc3cc(NC(=O)NCCOCc4ccccc4)ncc32)ccn1 [Example 95]
query: pIC50 comparison. Which is larger, I or II ? To answer, give the label that identifies your chosen option.
result: I
(I: 8.93, II: 8.27)

###

experimental_system: phosphorylated active hERK2 enzyme (Homo sapiens (Human))
run_parameters: read-out: ERK2 IC50; IMAP-FP assay; 0.5 nM hERK2, 30 μM ATP; 10 point titration, 3 μM starting concentration
measure_name: IC50 (nM)

a = Cc1cc(-n2ncc3cc(NC(=O)NCc4sc(C(C)C)nc4C)ncc32)ccn1
b = Cc1cc(-n2ncc3cc(NC(=O)N[C@H](C)c4ccccn4)ncc32)ccn1
c = Cc1cc(-n2ncc3cc(NC(=O)NCc4cc(C)nn4C)ncc32)ccn1
d = Cn1cc(-n2ncc3cc(NC(=O)NCc4ccc(F)c(Cl)c4)ncc32)cn1
query: Order by IC50, ascending. The response must list the labels following the requested ordering.
result: b, d, c, a
(b: 7.84 nM, d: 20.8 nM, c: 96.6 nM, a: 707 nM)

P = Cc1cc(-n2ncc3cc(NC(=O)N[C@H]4CCN(C)C4)ncc32)ccn1
Q = Cc1cc(-n2ncc3cc(NC(=O)N[C@H]4CNC[C@@H]4Oc4cncc(F)c4)ncc32)ccn1
query: Which one would you say has the larger IC50 value: P , or Q ? Reply with the label of the item you choose.
result: P

###

experimental_system: phosphorylated active hERK2 enzyme (Homo sapiens (Human))
run_parameters: read-out: ERK2 IC50; IMAP-FP assay; 0.5 nM hERK2, 30 μM ATP; 10 point titration, 3 μM starting concentration
measure_name: IC50 (nM)

Use the examples below as a reference point.
Cc1cc(-n2ncc3cc(NC(=O)NC(CN)c4ccccc4)ncc32)ccn1 (centres unmarked); 0.962
Cc1cc(-n2ncc3cc(NC(=O)NC4CCN(Cc5ccccc5C#N)C4)ncc32)ccn1 (centres unmarked); 4.35
Cc1cc(-n2ncc3cc(NC(=O)N[C@@H](c4ccccc4)C(C)(C)O)ncc32)ccn1; 0.558
Cc1cc(-n2ncc3cc(NC(=O)NC4CCN(Cc5cccnc5Cl)C4)ncc32)ccn1 (centres unmarked); 2.84
Cc1cc(-n2ncc3cc(NC(=O)NCc4nonc4C)ncc32)ccn1; 5.38

I = Cc1cc(-n2ncc3cc(NC(=O)N[C@H](C)c4ccccc4)nc(COCCN4CCOCC4)c32)ccn1
II = C[C@@H](NC(=O)Nc1cc2cnn(-c3ccc(F)cc3)c2c(CN2CCOCC2)n1)c1ccccc1
query: Could you tell me which of these two has the smaller IC50 figure? First: I Second: II Please reply using the label of the selected record.
result: I
(I: 127 nM, II: 2240 nM)

###

experimental_system: phosphorylated active hERK2 enzyme (Homo sapiens (Human), UniProt P28482)
run_parameters: read-out: ERK2 IC50; IMAP-FP assay; 0.5 nM hERK2, 30 μM ATP; 10 point titration, 3 μM starting concentration
measure_name: IC50 (nM)

Known results for compounds:
C=CC(=O)NCCc1nc(NC(=O)N[C@H](C)c2ccccc2)cc2cnn(C)c12; 563
CC(C)n1ncc2cc(NC(=O)N[C@H](C)c3ccccc3)nc(CO)c21; 62.2
Cc1cc(-n2ncc3cc(NC(=O)NCC4Cc5ccccc5N(C)C4)ncc32)ccn1 (centres unmarked); 2.31
Cc1cc(-n2ncc3cc(NC(=O)NCc4ccc(N5CCCC5=O)cc4)ncc32)ccn1; 332
Cc1cc(-n2ncc3cc(NC(=O)NC4CCN(Cc5cccnc5)C4)ncc32)ccn1 (centres unmarked); 45.3
C[C@@H](NC(=O)Nc1cc2cnn(CC3CC3)c2c(CO)n1)c1ccccc1; 79.5

1 = O=C(NCc1ccc(Cl)c(Cl)c1)Nc1cc2cnn(-c3ccc(F)cc3)c2cn1
2 = Cc1cc(-n2ncc3cc(NC(=O)N[C@H]4CCC[C@@H]4OCc4ccccc4)ncc32)ccn1
query: Identify the item whose IC50 is the smaller number: 1 or 2 Mark your answer with the label of the selected entry.
result: 2
(2: 7.51 nM, 1: 19.7 nM)

1 = Cn1ncc2ccc(-n3ncc4cc(NC(=O)N[C@@H](c5ccccc5)C(C)(C)O)ncc43)cc21
2 = C[C@@H](NC(=O)Nc1cc2cnn(C3CCOCC3)c2c(CO)n1)c1ccccc1
query: Hi there, can you help? I need to know whether 1 or 2 has lower measured IC50. Write the label of whichever entry you select.
result: 1

A = O=C(NCCc1ccccc1F)Nc1cc2cnn(-c3ccncc3)c2cn1
B = Cc1cc(-n2ncc3cc(NC(=O)NCc4ccc(-n5cccn5)cc4)ncc32)ccn1
query: Between the two listed entries A and B , which has its IC50 at the higher number? Give the label of your selection.
result: B
(B: 1110 nM, A: 9.2 nM)

I = Cn1cc2cc(-n3ncc4cc(NC(=O)NC(c5ccccc5)c5cnco5)ncc43)ccc2n1 (centres unmarked)
II = Cc1cc(-n2ncc3cc(NC(=O)NC4CCCN(Cc5c(F)cccc5F)C4)ncc32)ccn1 (centres unmarked)
III = Cc1cc(-n2ncc3cc(NC(=O)N[C@@H]4CN(C)C[C@H]4c4ccc(C)s4)ncc32)ccn1 [Example 124]
IV = Cc1cc(-n2ncc3cc(NC(=O)N[C@@H]4C[C@H](C)N(C)C4)ncc32)ccn1
query: With regard to IC50, arrange the entries in ascending order, please. Write the labels, ordered according to the request.
result: III, I, II, IV

###

experimental_system: phosphorylated active hERK2 enzyme (Homo sapiens (Human), UniProt P28482)
run_parameters: read-out: ERK2 IC50; IMAP-FP assay; 0.5 nM hERK2, 30 μM ATP; 10 point titration, 3 μM starting concentration
pIC50: −log10 of the molar value.
measure_name: pIC50

Worked examples, 2 compounds total:
Cc1cc(-n2ncc3cc(NC(=O)NC4CNC(c5ccccc5)C4)ncc32)ccn1 (stereo not shown); 6.70
Cc1cc(-n2ncc3cc(NC(=O)N[C@@H]4[C@@H](C)N(C)C[C@H]4c4ccccc4C)ncc32)ccn1; 7.45

a = CNC(=O)c1cccc(CNC(=O)Nc2cc3cnn(-c4ccnc(C)c4)c3cn2)c1
b = Cc1cc(-n2ncc3cc(NC(=O)N[C@H](COC(C)C)c4ccccc4)ncc32)ccn1
query: Lab note: check whether a or b shows the higher recorded pIC50. Field: selected label. Fill in the label of the entry you choose.
result: b
(b: 9.10, a: 8.47)

###

experimental_system: phosphorylated active hERK2 enzyme (Homo sapiens (Human), UniProt P28482)
run_parameters: read-out: ERK2 IC50; IMAP-FP assay; 0.5 nM hERK2, 30 μM ATP; 10 point titration, 3 μM starting concentration
measure_name: IC50 (nM)

1 = Cc1cc(-n2ncc3cc(NC(=O)NCc4ccc5c(c4)CC(=O)N5)ncc32)ccn1
2 = Cc1cc(-n2ncc3cc(NC(=O)N[C@H](CN(C)C)c4ccccc4)ncc32)ccn1
query: // pick min by IC50: 1 , 2 Choose, then provide that item's label.
result: 1
(1: 73.1 nM, 2: 123 nM)

a = C[C@@H](NC(=O)Nc1cc2cnn(-c3ccc(F)cc3)c2c(COCCO)n1)c1ccccc1
b = Cc1cc(-n2ncc3cc(NC(=O)N[C@H](C)c4ccccc4)nc(COCCOCc4ccccc4)c32)ccn1
c = C[C@@H](NC(=O)Nc1cc2cnn(-c3ccc(F)cc3)c2cn1)c1ccc(F)cc1
query: Arrange these compounds by their IC50, starting with the largest number. Your answer should be the labels, listed in the requested order.
result: a, b, c
(a: 52.2 nM, b: 25.3 nM, c: 10.6 nM)

A = Cc1cc(-n2ncc3cc(NC(=O)N[C@H]4CN(C)C[C@@H]4c4ccccc4)ncc32)ccn1
B = Cc1cc(-n2ncc3cc(NC(=O)N[C@H]4CN(C)C[C@@H]4Oc4cncc(F)c4)ncc32)ccn1
query: Just tell me: smaller IC50 value, A or B ? Choose, then provide that item's label.
result: A
(A: 59.7 nM, B: 242 nM)
